Here, molecules appear alongside Ki reported for SYK kinase (Homo sapiens, UniProt P43405) in the literature.

COc1ccc2nc(Nc3ccc4c[nH]nc4c3)c3n[nH]cc3c2c1 :: 0.01 to 0.1 µM
COc1cccc(-c2nc(Nc3ccc(OC)c(OC)c3)c3[nH]ncc3n2)c1 :: < 0.01 µM
Fc1cccc(-c2cnoc2-c2c[nH]c3ncc(/C=C/n4cncn4)cc23)c1F :: 1 to 12.5 µM
O=C1CCc2ccc(Nc3nc(-c4cocn4)nc4cn[nH]c34)cc2N1 :: < 0.01 µM
COc1ccc2nc(Nc3cccc(C(N)=O)c3)c3n[nH]cc3c2c1 :: 0.1 to 1 µM

System SYK kinase (Homo sapiens, UniProt P43405). Read-out Ki. Item `Nc1cccc(Nc2nc(-c3ccsc3)nc3cn[nH]c23)c1` . Report value.
< 0.01 µM

System SYK kinase (Homo sapiens, UniProt P43405). Read-out Ki. Item `COc1ccc2nc(Nc3ccc4ncc(=O)[nH]c4c3)c3n[nH]cc3c2c1` . Report value.
0.1 to 1 µM
